Target: Histamine H4 receptor (Mus musculus, UniProt Q91ZY2)
Sequence (Q91ZY2 whole entry): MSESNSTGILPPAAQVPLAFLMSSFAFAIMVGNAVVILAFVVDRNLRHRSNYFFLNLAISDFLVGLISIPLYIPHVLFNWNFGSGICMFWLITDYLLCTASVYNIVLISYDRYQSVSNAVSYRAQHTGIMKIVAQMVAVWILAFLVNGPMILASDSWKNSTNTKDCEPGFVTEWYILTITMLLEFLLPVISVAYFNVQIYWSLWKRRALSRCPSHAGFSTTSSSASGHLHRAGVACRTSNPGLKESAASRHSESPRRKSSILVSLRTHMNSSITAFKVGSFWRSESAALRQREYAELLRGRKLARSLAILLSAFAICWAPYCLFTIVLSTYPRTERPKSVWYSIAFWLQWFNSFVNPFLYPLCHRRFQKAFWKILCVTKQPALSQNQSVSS
Assay: Inhibition of UR-DEBa242 binding to mouse recombinant NLuc/GPCR-fused H4R expressed in HEK293T cells measured after 30 mins by furimazine substrate based BRET assay
Format: cell-based, HEK-293T
EXPERIMENTAL READOUT: pKi
# reply with the number alone; pKi is -log10 of concentration in mol/L

Which pKi is listed for NC(=NCc1ccc(Cl)cc1)SCCCc1cnc[nH]1 ? 6.91

Param item: S=C(NC1CCCCC1)N1CCC(c2cnc[nH]2)CC1 [THIOPERAMIDE] 7.18
